System: MS2 coat protein
Assay details: apparent KD of MS2 coat protein; designed switch direction (-1 OFF switch, 1 ON switch): -1; higher = weaker reporter binding
Experimental context: input ligand: microRNA oligo, concentration not stated
In this section we review reported apparent KD of MS2 coat protein values for a set of sequences.

[
  {
    "Seq text": "CACCGUUACAGAGGAUAUGAUACAUGAGGAUCACCCAUGUAAUAAAUGAGAAUUUCGAAUGUACCUCAGAAGGCUGGAACCGGC [Ostricism 79 - Jieux - Exclusion NG 2] (Eterna round: R96, puzzle: Exclusion NG 2)",
    "U": "nM",
    "apparent KD of MS2 coat protein": 31.1
  },
  {
    "Seq text": "GACUCGCACUGAGGAUAUCGAAACGAUACGUCGCGAGAAGGCAGAGCGAACAUGAGGAUCACCCAUGUGGGUUCGCCUGAUGUA [Geedinsoma] (Eterna round: R96, puzzle: Exclusion NG 1)",
    "U": "nM",
    "apparent KD of MS2 coat protein": 12.9
  },
  {
    "Seq text": "CACGAAGAGUGAGGAUAUGUGCGACAAAGUUGCACAGAAGGCACAUGAGGAUCACCCAUGUAAGCUAGGUCGAAAGACCUAGCG [Omei Exc(NG)1 Av3] (Eterna round: R96, puzzle: Exclusion NG 1)",
    "U": "nM",
    "apparent KD of MS2 coat protein": 20.2
  },
  {
    "Seq text": "GGAUAUAACGUAGGAUAUGAGCGCAACUGACGAUCAGAAGGACGACAUGAGGAUCACCCAUGUGAUCUAUCAAUAUUAUACAUG [Prohibition 95 - Jieux - Exclusion NG 1] (Eterna round: R96, puzzle: Exclusion NG 1)",
    "U": "nM",
    "apparent KD of MS2 coat protein": 495
  },
  {
    "Seq text": "GUAACAACUAGAGGAUAUCAGCACGUGUAGUGCUGAGAAGGCUAGAGUUACAUGAGGAUCACCCAUGUCUAGAGAUCAUUAAUU [ENG1/13-A3] (Eterna round: R96, puzzle: Exclusion NG 1)",
    "U": "nM",
    "apparent KD of MS2 coat protein": 52.9
  },
  {
    "Seq text": "CAUUAUUAUCGAGGAUAUCCUAUUGAAAUUCUGGGAGAAGGCGGACUCAACAUGAGGAUCACCCAUGUAAGACGGGUGCUAGGG [Ex NG1 #25] (Eterna round: R96, puzzle: Exclusion NG 1)",
    "U": "nM",
    "apparent KD of MS2 coat protein": 93.1
  },
  {
    "Seq text": "GGGCUGCGACACAGCCAAACAAAACAUGAGGAUCACCCAUGUCAGGAUAUACCGAUGCAGCAUCUGUAGAAGGGACAGAUCCAA [Lalaon] (Eterna round: R96, puzzle: Exclusion NG 3)",
    "U": "nM",
    "apparent KD of MS2 coat protein": 68.8
  },
  {
    "Seq text": "CUAGCGAUUGUAGGAUAUCGGACUGUUUCAGUCUGAGAAGGACAUGAGGAUCACCCAUGUGAUGCUACGUGAGUAGCACGCUAG [JL ENG1 3.85] (Eterna round: R96, puzzle: Exclusion NG 1)",
    "U": "nM",
    "apparent KD of MS2 coat protein": 20
  },
  {
    "Seq text": "AAUCUACAUGUAGGAUAUGCGUGGCAAAGCUAUGCAGAAGGACAUGAGGAUCACCCAUGUUUUAGCGUCUGCGUACAGAUGCGA [Mat - Exclusion NG 1 - Mod of JL - D100] (Eterna round: R96, puzzle: Exclusion NG 1)",
    "U": "nM",
    "apparent KD of MS2 coat protein": 18.4
  },
  {
    "Seq text": "GUCAGCUCGUGAGGAUAUACAUGAGGAUCACCCAUGUGAUCAAUAGCAGCUUCGGCUGCAUUAAUGUAGAAGGUACGAGCUGAU [ENG2/5-C2] (Eterna round: R96, puzzle: Exclusion NG 2)",
    "U": "nM",
    "apparent KD of MS2 coat protein": 231
  },
  {
    "Seq text": "UACAUGAGGAUCACCCAUGUUUUGUCGUGUAUGGUAUUUAUCUAGGAUAUCAAUUUAAUUAUUUAUGAGAAGGAGAAUAUUAAU [JMF's solution 17] (Eterna round: R96, puzzle: Exclusion NG 3)",
    "U": "nM",
    "apparent KD of MS2 coat protein": 29.8
  },
  {
    "Seq text": "CAGUACUGAGGAUAUACAUGAGGAUCACCCAUGUGUCCUAGCUAGGAAACUAGCAUUAGUAGAAGGCAGUACUG [Fiskers Ex 3 828 mod 6] (Eterna round: R96, puzzle: Exclusion 3)",
    "U": "nM",
    "apparent KD of MS2 coat protein": 16.9
  },
  {
    "Seq text": "GCCGGAGCAGGAUAUCUAAUAUAUCACAUGAGGAUCACCCAUGUCCAGCGAAAGCUGGAGGGAGAAGGGCUCUGGC [Fiskers Ex 5 - 22] (Eterna round: R96, puzzle: Exclusion 5)",
    "U": "nM",
    "apparent KD of MS2 coat protein": 99.1
  },
  {
    "Seq text": "AGCUGUGGCCGAGGAUAUAUACAUGAGGAUCACCCAUGUAGGUGCGGAUACUCGCACCAAUAAGUGUAGAAGGCGGUCUCAGCA [Eli eng2 - 058] (Eterna round: R96, puzzle: Exclusion NG 2)",
    "U": "nM",
    "apparent KD of MS2 coat protein": 13.1
  },
  {
    "Seq text": "GCAGCAUAGUUUACUAACUGUUACAUGAGGAUCACCCAUGUUUAGGAUAUGGUCUGGAUUACAGGCCAGAAGGGAACAAGCUGC [Eli exng3 - 032] (Eterna round: R96, puzzle: Exclusion NG 3)",
    "U": "nM",
    "apparent KD of MS2 coat protein": 10.3
  },
  {
    "Seq text": "CAGUACUGAGGAUAUACAUGAGGAUCACCCAUGUGUUCCAGCUAGGAAACUAGCAUAAGUAGAAGGCAGUACUG [salish99_ex3_r3_091x] (Eterna round: R96, puzzle: Exclusion 3)",
    "U": "nM",
    "apparent KD of MS2 coat protein": 18.4
  },
  {
    "Seq text": "AGAGUGCUGCGAGGAUAUACAUGAGGAUCACCCAUGUAAUCGUGUGAGGCAAAGCCUCACACGAUGUAGAAGGCGCAGUACUCA [Mat - Exclusion NG 2 - Mod of JL - D24] (Eterna round: R96, puzzle: Exclusion NG 2)",
    "U": "nM",
    "apparent KD of MS2 coat protein": 12.8
  },
  {
    "Seq text": "UACAUGAGGAUCACCCAUGUUUUGUCGUGUAUGGUACCCGUUUAGGAUAUCGUGUUAUUGGACCGCGAGAAGGAGAGUAUCAUU [Excl-NG3-LRO05] (Eterna round: R96, puzzle: Exclusion NG 3)",
    "U": "nM",
    "apparent KD of MS2 coat protein": 30
  }
]
